# ASSAY_PROTOCOL: folding enthalpy; higher = less favourable; fluorescence melt of hairpins on a sequencing array, two-state fit
# CONDITION_DETAILS: sodium 0.088 M
Assign a class from recorded folding enthalpy; defined classes: bottom end = under -100 kJ/mol, midrange = from -100 kJ/mol up to -60 kJ/mol, top end = -60 kJ/mol and over

# count of solved cases: 2
{"columns": ["SEQUENCE_ENTRY", "CATEGORY"],
 "data": [
  ["GTGCATGCGAAAGCACAC (((..(((....))))))", "top end"],
  ["GCAATCGAAAGATAATGC ((((((....)))..)))", "midrange"]
]}

Dear colleague, I would appreciate it if you could identify the bin for GACTCCCGAAAGGGCGTC (((.(((....))).))) and reply at your convenience. bottom end

Dear colleague, I would appreciate it if you could identify the bin for CCTAAGAAATTAGG (((((....))))) and reply at your convenience. top end

Dear colleague, I would appreciate it if you could identify the bin for GCGGCGAACCGC ((((....)))) and reply at your convenience. midrange

Dear colleague, I would appreciate it if you could identify the bin for GTGATCACGAAAGTGCAC (((..(((....)))))) and reply at your convenience. top end

Dear colleague, I would appreciate it if you could identify the bin for GACGTACGAAAGTAAGTC (((.(((....))).))) and reply at your convenience. bottom end

Dear colleague, I would appreciate it if you could identify the bin for GCTTAGCGAAAGCTCCGC ((..(((....)))..)) and reply at your convenience. top end

Dear colleague, I would appreciate it if you could identify the bin for CTAATGAAAATTAG (((((....))))) and reply at your convenience. top end

Dear colleague, I would appreciate it if you could identify the bin for GCACAAGGAAACTTGCGC ((.((((....)))).)) and reply at your convenience. bottom end

Dear colleague, I would appreciate it if you could identify the bin for GGATCGGGAAACCAATCC ((((.((....)).)))) and reply at your convenience. bottom end

Dear colleague, I would appreciate it if you could identify the bin for GGCAACGAAAGTTGCGCC ((((((....)))..))) and reply at your convenience. top end

Dear colleague, I would appreciate it if you could identify the bin for GGTCTAGGAAACTAGATC (.(((((....))))).) and reply at your convenience. bottom end

Dear colleague, I would appreciate it if you could identify the bin for GCAAGGCGAAAGCCGAGC ((..(((....)))..)) and reply at your convenience. bottom end

Dear colleague, I would appreciate it if you could identify the bin for GATTGCGGAAACGTAGTC ((.(.((....)).).)) and reply at your convenience. top end

Dear colleague, I would appreciate it if you could identify the bin for GATCAACTATTGATC ((((((...)))))) and reply at your convenience. bottom end

Dear colleague, I would appreciate it if you could identify the bin for GTCCCCGAAAGGGAGGAC ((((((....)))..))) and reply at your convenience. midrange

Dear colleague, I would appreciate it if you could identify the bin for GCGCCTTCGAAAGAACGC (((..(((....)))))) and reply at your convenience. midrange

Dear colleague, I would appreciate it if you could identify the bin for GAATCCGAAAGGATTC ((((((....)))))) and reply at your convenience. bottom end

Dear colleague, I would appreciate it if you could identify the bin for GATCATTGGCATGATC ((((((....)))))) and reply at your convenience. bottom end

Dear colleague, I would appreciate it if you could identify the bin for GCATGAGAAATCATGC ((((((....)))))) and reply at your convenience. bottom end

Dear colleague, I would appreciate it if you could identify the bin for GCATCAGGAAACTGGTGC (((.(((....))).))) and reply at your convenience. bottom end

Dear colleague, I would appreciate it if you could identify the bin for GGTGTAGGAAACTACGTC (..((((....))))..) and reply at your convenience. top end

Dear colleague, I would appreciate it if you could identify the bin for GCGGAATCGAAAGATCGC (((..(((....)))))) and reply at your convenience. bottom end

---

Assignment: determine reported folding enthalpy for the given sequences.
# ASSAY_PROTOCOL: folding enthalpy; higher = less favourable; fluorescence melt of hairpins on a sequencing array, two-state fit
# CONDITION_DETAILS: sodium 0.088 M
Give bare numbers, in kcal/mol.

Fill in folding enthalpy for each of the 6 sequences listed.
1. GGCCGTCGAAAGACGCC (((.(((....))))))
2. GGATACGAAAGTACTCC ((((((....))).)))
3. GCGACACATCGC ((((....))))
4. GATCGAATTTTCGATC ((((((....))))))
5. GATCTACGCCTAGATC ((((((....))))))
6. GATCGCAAGCGCGATC ((((((....))))))

-17.2
-22.9
-24.2
-36.1
-33.8
-31

Fill in folding enthalpy for each of the 8 sequences listed.
1. GGAGGCGAAAGCCATTCC ((((((....)))..)))
2. GTTTCCGAAAGGACGAAC ((((((....)))..)))
3. GCGACATCGAAAGATCGC (((..(((....))))))
4. GTCTCCGAAAGGAAAGAC ((((((....)))..)))
5. GATCTTATCTAAGATC ((((((....))))))
6. GCTGTTCGAAAGAAGAGC (((.(((....))).)))
7. GTGAATCGAAAGATGCAC (((.(((....))).)))
8. GGTCCTCGAAAGAGACC (((.(((....))))))

1. -7.5
2. -9.15
3. -26.7
4. -23.1
5. -41.9
6. -37.2
7. -31.4
8. -31.3

Fill in folding enthalpy for each of the 5 sequences listed.
1. GTCAGCGAAAGCTTGGAC ((((((....)))..)))
2. GCGAAGCGAAAGCTGGGC ((..(((....)))..))
3. GGGACCGGAAACAGTCCC (((((.(....).)))))
4. GAAACCGAAAGGTCTTC ((((((....))).)))
5. GGCGTCGAAAGACGGGCC ((((((....)))..)))

1: -13.9; 2: -9.44; 3: -34.5; 4: -19.4; 5: -12.7

Fill in folding enthalpy for each of the 2 sequences listed.
1. GCTTGGGGAAACCCAAGC (((((((....)))))))
2. GCGTCGCAACGC ((((....))))

1. -43.6
2. -20

Fill in folding enthalpy for each of the 2 sequences listed.
1. GATCATACACATGATC ((((((....))))))
2. GCACCGGGAAACCGGCGC ((.((((....)))).))

[-36, -41.3]

Fill in folding enthalpy for each of the 7 sequences listed.
1. GCGGCTACCCGC ((((....))))
2. GATCATGGAAACATGATC (((((((....)))))))
3. GCCGCCGGAAACAGCGGC (((((.(....).)))))
4. GTTTGGAAACAAAC (((((....)))))
5. GGAAGTGGAAACACTTCC (((((((....)))))))
6. GGTTTACGAAAGTATACC (((.(((....))).)))
7. GATCGACACGTCGATC ((((((....))))))

1. -22.2
2. -35.3
3. -37.4
4. -24.5
5. -54
6. -39.3
7. -33.7

Fill in folding enthalpy for each of the 7 sequences listed.
1. GGTCACCGAAAGGTAACC (((.(((....))).)))
2. GACCCCGGAAACGGAGTC (((.(((....))).)))
3. GAAACTGGAAACAGTTTC (((((((....)))))))
4. GGCCGCGAAAGCGTTGCC ((((((....)))..)))
5. GACTCGCGAAAGCGCGTC (((.(((....))).)))
6. CGGACCGGAAACGGCCG (((.(((....))))))
7. GCCGAACGAAAGTTAGGC (((.(((....))).)))

1. -27.5
2. -31.4
3. -51.5
4. -16.8
5. -23.6
6. -28.9
7. -36.2

Fill in folding enthalpy for each of the 5 sequences listed.
1. GCATGGCGAAAGCAATGC ((((.((....)).))))
2. GATTTGGGAAACCAGATC (((.(((....))).)))
3. GTTCGCGAAAGCGTTAAC ((((((....)))..)))
4. GCTCCGCGAAAGCGACGC ((..(((....)))..))
5. GATCATACTGATGATC ((((((....))))))

1: -30.6; 2: -35.9; 3: -10.9; 4: -18.4; 5: -30.2
